Tested Target: T1, cynomolgus EREG (Biacore analyte) (cynomolgus monkey, UniProt O14944 63-108 (human entry), limits assumed)
T1 construct: also called cynomolgus monkey EREG; cEREG
T1 sequence (O14944 other isoform, or with tags, fused parts or gaps limits assumed): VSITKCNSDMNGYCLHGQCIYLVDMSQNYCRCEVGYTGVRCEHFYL
Test Name: SPR (Biacore T100), antibody captured on Protein A, EREG as analyte; KD for monkey EREG over KD for human EREG
Classify: Satisfied when cEREG KD (nM)/hEREG KD (nM) is strictly less than 8 ratio; Not satisfied when cEREG KD (nM)/hEREG KD (nM) is not.

Completed entries (count: 3):
Binder	Classification
chimeric antibody EP27 (cH-G1/cL-k) (antibody, human IgG1, kappa, V domains shown, mouse EP27 variable regions with human IgG1 (G1) and kappa constant regions; also called chimeric EP27) VH: EDQLQQSGAELVKPGASVKLSCTASGFNIKDTYIQWVKLRPEQGLEWIGRIDPLNGNTKYVPKFQGKATITADTSSNTAYLQLSSLTSEDTAVYYCVRSGTLFDFWGQGTTLTVSS VL: DIQMTQSPSSLSASLGGKVTITCKASQDIHKYIAWYQHKPGKGPRLLIQYTSTLQPGIPSRFSGSGSGRDYSFSISNLEPEDIATYYCLQYDNLRTFGGGTKLEIKR	Not satisfied
H118-G1d/LB-k (antibody, human IgG1, kappa, V domains shown) VH: QDQLVQSGAEVKKPGASVKVSCKASGFNIKDTYIQWVRQAPGQGLEWMGRIDPLRGNRKYREKFEGRVTITADTSTNTAYMELSSLRSEDTAVYYCVRSGTLFDFWGQGTLVTVSS VL: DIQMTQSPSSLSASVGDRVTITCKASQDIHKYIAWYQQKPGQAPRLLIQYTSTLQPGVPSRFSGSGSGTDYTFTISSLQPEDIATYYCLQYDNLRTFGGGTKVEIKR	Satisfied
H133-G1d/LB-k (antibody, human IgG1, kappa, V domains shown) VH: QDQLVQSGAEVKKPGASVKVSCKASGFNIKDTYIQWVRQAPGQGLEWMGRIDPLRRNTKYREKFEGRVTITADTSTNTAYMELSSLRSEDTAVYYCVRSGTRFDFWGQGTLVTVSS VL: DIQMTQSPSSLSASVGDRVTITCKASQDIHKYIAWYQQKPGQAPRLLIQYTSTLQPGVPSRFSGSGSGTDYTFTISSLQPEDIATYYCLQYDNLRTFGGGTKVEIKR	Satisfied

Task: Given H111-G1d/L48-k (antibody, human IgG1, kappa, V domains shown) VH: QDQLVQSGAEVKKPGASVKVSCKASGFNIKDTYIQWVRQAPGQGLEWMGRIDPLRGNTKYREKFEGRVTITADTSTNTAYMELSSLRSEDTAVYYCVRSGTLFDFWGQGTLVTVSS VL: DIQMTQSPSSLSASVGDRVTITCKASQDIHKYIAWYQQKPGQAPRLLIQYTSTLQPGVPSRFSGSGSGTDYTFTISSLQPEDIATYYCLQYDNRRTFGGGTKVEIKR , is recorded cEREG KD (nM)/hEREG KD (nM) strictly lower than 8 ratio?
Result: Not satisfied

Task: Given H87-G1d/LB-k (antibody, human IgG1, kappa, V domains shown) VH: QDQLVQSGAEVKKPGASVKVSCKASGFNIKDTYIQWVRQAPGQGLEWMGRIDPLTGQTKYQEKFEGRVTITADTSTNTAYMELSSLRSEDTAVYYCVRSGTSFDFWGQGTLVTVSS VL: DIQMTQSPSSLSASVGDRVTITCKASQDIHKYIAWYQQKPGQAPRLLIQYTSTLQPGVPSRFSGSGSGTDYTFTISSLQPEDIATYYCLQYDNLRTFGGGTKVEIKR , is recorded cEREG KD (nM)/hEREG KD (nM) strictly lower than 8 ratio?
Result: Not satisfied
